Test: Half life in human liver microsomes incubated up to 60 mins
Assay type: ADME, Microsome
Below, each entry is listed with its recorded half-life.
quantity_name: half-life (min)

smiles_representation: CC(C)CCC[C@](C)(O)[C@H]1CC[C@H]2[C@@H]3C[C@H](O)[C@H]4C[C@@H](O)CC[C@]4(C)[C@H]3CC[C@@]21C
result_number: 4
--
smiles_representation: [2H][C@H](CC(C)C)[C@@H]([2H])[C@](C)(O)[C@H]1CC[C@H]2[C@@H]3C[C@H](O)[C@H]4C[C@@H](O)CC[C@]4(C)[C@H]3CC[C@]12C
result_number: 5

###

Assay: Metabolic stability in human liver microsomes assessed as compound remaining after 1 hr
Type: ADME, Microsome
Conditions: read-out: Stability

smiles_representation: CC(C)CCC[C@](C)(O)[C@H]1CC[C@H]2[C@@H]3C[C@H](O)[C@H]4C[C@@H](O)CC[C@]4(C)[C@H]3CC[C@@]21C
remaining at 1 h, %: 3

smiles_representation: COCCCC[C@](C)(O)[C@H]1CC[C@H]2[C@@H]3C[C@H](O)[C@H]4C[C@@H](O)CC[C@]4(C)[C@H]3CC[C@@]21C
remaining at 1 h, %: 35

smiles_representation: [2H]C([2H])(CC(C)C)C([2H])([2H])[C@](C)(O)[C@H]1CC[C@H]2[C@@H]3C[C@H](O)[C@H]4C[C@@H](O)CC[C@]4(C)[C@H]3CC[C@@]21C
remaining at 1 h, %: 100

smiles_representation: CCCCCC[C@](C)(O)[C@H]1CC[C@H]2[C@@H]3C[C@H](O)[C@H]4C[C@@H](O)CC[C@]4(C)[C@H]3CC[C@@]21C
remaining at 1 h, %: 2

smiles_representation: C[C@]12CC[C@H](O)C[C@@H]1[C@@H](O)C[C@@H]1[C@@H]2CC[C@@]2(C)[C@H]1CC[C@@H]2[C@@](C)(O)CCCc1ccccc1
remaining at 1 h, %: 1

smiles_representation: [2H]C([2H])(CCCC)C([2H])([2H])[C@](C)(O)[C@H]1CC[C@H]2[C@@H]3C[C@H](O)[C@H]4C[C@@H](O)CC[C@]4(C)[C@H]3CC[C@@]21C
remaining at 1 h, %: 100

smiles_representation: CCCCCC[C@@](O)(c1ccccc1)[C@H]1CC[C@H]2[C@@H]3C[C@H](O)[C@H]4C[C@@H](O)CC[C@]4(C)[C@H]3CC[C@@]21C
remaining at 1 h, %: 69

smiles_representation: CCCCCC[C@@](O)(CC)[C@H]1CC[C@H]2[C@@H]3C[C@H](O)[C@H]4C[C@@H](O)CC[C@]4(C)[C@H]3CC[C@]12C
remaining at 1 h, %: 9

###

Biological target: Sonic hedgehog protein (Mus musculus)
Sequence (Q62226 25-198 limits assumed): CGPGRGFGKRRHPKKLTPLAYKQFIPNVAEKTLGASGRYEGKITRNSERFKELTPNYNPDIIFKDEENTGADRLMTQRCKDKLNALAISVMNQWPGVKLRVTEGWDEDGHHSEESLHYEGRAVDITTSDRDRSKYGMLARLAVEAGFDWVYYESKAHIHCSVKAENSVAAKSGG
Experiment: Activation of SHh in mouse Light2 cells assessed as induction of Gli-mediated luciferase activity after 24 hrs by reporter gene assay
pEC50: −log10 of the molar value.
Each entry gets 0.0 if its pEC50 stays under 6, and 1.0 if its pEC50 is 6 or above.

smiles_representation: COCCCC[C@](C)(O)[C@H]1CC[C@H]2[C@@H]3C[C@H](O)[C@H]4C[C@@H](O)CC[C@]4(C)[C@H]3CC[C@@]21C
class_assignment: 0.0
--
smiles_representation: [2H]C([2H])(CCCC)C([2H])([2H])[C@](C)(O)[C@H]1CC[C@H]2[C@@H]3C[C@H](O)[C@H]4C[C@@H](O)CC[C@]4(C)[C@H]3CC[C@@]21C
class_assignment: 1.0
--
smiles_representation: CCCCCCC[C@](C)(O)[C@H]1CC[C@H]2[C@@H]3C[C@H](O)[C@H]4C[C@@H](O)CC[C@]4(C)[C@H]3CC[C@@]21C
class_assignment: 1.0

###

Biological target: UniProtKB Q62226
Test: Activation of SHh in mouse Light2 cells assessed as induction of Gli-mediated luciferase activity after 24 hrs by reporter gene assay
# note: exactly 1000 nM is not below, so it is not met; use met for EC50 strictly under it

smiles_representation: CC(C)CCC[C@](C)(O)[C@H]1CC[C@H]2[C@@H]3C[C@H](O)[C@H]4C[C@@H](O)CC[C@]4(C)[C@H]3CC[C@@]21C
class_assignment: met

smiles_representation: CCCCCC[C@](C)(O)[C@H]1CC[C@H]2[C@@H]3C[C@H](O)[C@H]4C[C@@H](O)CC[C@]4(C)[C@H]3CC[C@@]21C
class_assignment: met

smiles_representation: CCCCCC[C@@](O)(CC)[C@H]1CC[C@H]2[C@@H]3C[C@H](O)[C@H]4C[C@@H](O)CC[C@]4(C)[C@H]3CC[C@]12C
class_assignment: not met

smiles_representation: [2H]C([2H])(CC(C)C)C([2H])([2H])[C@](C)(O)[C@H]1CC[C@H]2[C@@H]3C[C@H](O)[C@H]4C[C@@H](O)CC[C@]4(C)[C@H]3CC[C@@]21C
class_assignment: met

smiles_representation: C[C@]12CC[C@H](O)C[C@@H]1[C@@H](O)C[C@@H]1[C@@H]2CC[C@@]2(C)[C@H]1CC[C@@H]2[C@@](C)(O)CCCc1ccccc1
class_assignment: not met

smiles_representation: C[C@]12CC[C@H](O)C[C@@H]1[C@@H](O)C[C@@H]1[C@@H]2CC[C@@]2(C)[C@H]1CC[C@@H]2[C@@](C)(O)CCCc1ccncc1
class_assignment: not met

smiles_representation: C[C@]12CC[C@H](O)C[C@@H]1[C@@H](O)C[C@@H]1[C@@H]2CC[C@@]2(C)[C@H]1CC[C@@H]2[C@@](C)(O)CCCc1cccnc1
class_assignment: not met

smiles_representation: CC(C)CCC[C@@](C)(O)[C@H]1CC[C@H]2[C@@H]3C[C@H](O)[C@H]4C[C@@H](O)CC[C@]4(C)[C@H]3CC[C@@]21C
class_assignment: not met

smiles_representation: CCCCC[C@](C)(O)[C@H]1CC[C@H]2[C@@H]3C[C@H](O)[C@H]4C[C@@H](O)CC[C@]4(C)[C@H]3CC[C@@]21C
class_assignment: not met

smiles_representation: CCCCCC[C@@](O)(c1ccccc1)[C@H]1CC[C@H]2[C@@H]3C[C@H](O)[C@H]4C[C@@H](O)CC[C@]4(C)[C@H]3CC[C@@]21C
class_assignment: not met

###

Below, each entry is listed with its recorded half-life.
Experiment: Half life in human liver microsomes incubated up to 120 mins at pH 7.4
Format: ADME, Microsome

smiles_representation: [2H]C([2H])(CC(C)C)C([2H])([2H])[C@](C)(O)[C@H]1CC[C@H]2[C@@H]3C[C@H](O)[C@H]4C[C@@H](O)CC[C@]4(C)[C@H]3CC[C@@]21C
half-life: > 2 h
//
smiles_representation: [2H][C@@H](CC(C)C)[C@H]([2H])[C@](C)(O)[C@H]1CC[C@H]2[C@@H]3C[C@H](O)[C@H]4C[C@@H](O)CC[C@]4(C)[C@H]3CC[C@]12C
half-life: > 2 h
